Cited source: patent US10287255B2

target: human recombinant HDAC6 (Homo sapiens); test: HDAC6 enzyme activity inhibition assay (in vitro, fluorimetric); details: human recombinant HDAC6, fluorimetric kit, same protocol as HDAC1
This listing pairs compounds with measured pIC50.
Hey, just a heads up that pIC50 is the negative log base 10 of the concentration in molar.

Fill in pIC50 for record C[C@@H]1CN(Cc2ccc(C(=O)NO)cc2)C[C@H](C)N1C(=O)c1ccccc1-c1ccncc1 [Compound 285]
7.03

Fill in pIC50 for record C[C@@H]1CN(Cc2ccc(C(=O)NO)cc2)C[C@H](C)N1C(=O)Cc1cccc(-c2ccccc2)c1 [Compound 234]
6.29

Fill in pIC50 for record C[C@@H]1CN(C(=O)Cc2cccc(C3=CCOCC3)c2)C[C@H](C)N1Cc1ccc(C(=O)NO)cc1 [Compound 252]
6.66

---

This listing pairs molecules with measured pIC50.
molecular target: human recombinant HDAC1 (Homo sapiens, UniProt Q13547); assay: HDAC1 enzyme activity inhibition assay (in vitro, fluorimetric); conditions: human recombinant HDAC1, fluorimetric kit, 30° C. 60 minutes
Sequence (Q13547 whole entry): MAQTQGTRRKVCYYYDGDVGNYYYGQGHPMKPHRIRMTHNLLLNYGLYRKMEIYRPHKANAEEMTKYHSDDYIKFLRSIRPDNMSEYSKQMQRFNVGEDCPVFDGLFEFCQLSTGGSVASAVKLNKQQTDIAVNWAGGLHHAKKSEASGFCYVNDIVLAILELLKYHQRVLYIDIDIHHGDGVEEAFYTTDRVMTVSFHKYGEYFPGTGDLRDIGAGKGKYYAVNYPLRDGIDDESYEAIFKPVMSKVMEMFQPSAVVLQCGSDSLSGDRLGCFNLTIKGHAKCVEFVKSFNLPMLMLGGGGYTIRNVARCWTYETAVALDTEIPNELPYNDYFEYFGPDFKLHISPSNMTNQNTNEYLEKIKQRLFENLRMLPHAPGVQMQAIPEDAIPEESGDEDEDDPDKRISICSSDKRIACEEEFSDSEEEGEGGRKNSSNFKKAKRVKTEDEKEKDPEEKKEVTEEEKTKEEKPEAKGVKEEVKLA
Hey, just a heads up that pIC50 is the negative log base 10 of the concentration in molar.

Study these solved cases before continuing.
{"SMI": "C[C@@H]1CN(CCc2ccc(C(=O)NO)cc2)C[C@H](C)N1Cc1ccccc1", "pIC50": 4.95}
{"SMI": "C[C@@H]1CN(Cc2ccc(C(=O)NO)cc2)C[C@H](C)N1C(=O)c1ccncc1", "pIC50": 5.37}

Shift focus to the following entry.
Fill in pIC50 for record C[C@@H]1CN(Cc2ccc(/C=C/C(=O)NO)cc2)C[C@H](C)N1Cc1ccccc1
5.89

---

Target: human recombinant HDAC6 (Homo sapiens, UniProt Q9UBN7)
Construct: purchased Calbiochem 382180
Sequence (Q9UBN7 1-1215): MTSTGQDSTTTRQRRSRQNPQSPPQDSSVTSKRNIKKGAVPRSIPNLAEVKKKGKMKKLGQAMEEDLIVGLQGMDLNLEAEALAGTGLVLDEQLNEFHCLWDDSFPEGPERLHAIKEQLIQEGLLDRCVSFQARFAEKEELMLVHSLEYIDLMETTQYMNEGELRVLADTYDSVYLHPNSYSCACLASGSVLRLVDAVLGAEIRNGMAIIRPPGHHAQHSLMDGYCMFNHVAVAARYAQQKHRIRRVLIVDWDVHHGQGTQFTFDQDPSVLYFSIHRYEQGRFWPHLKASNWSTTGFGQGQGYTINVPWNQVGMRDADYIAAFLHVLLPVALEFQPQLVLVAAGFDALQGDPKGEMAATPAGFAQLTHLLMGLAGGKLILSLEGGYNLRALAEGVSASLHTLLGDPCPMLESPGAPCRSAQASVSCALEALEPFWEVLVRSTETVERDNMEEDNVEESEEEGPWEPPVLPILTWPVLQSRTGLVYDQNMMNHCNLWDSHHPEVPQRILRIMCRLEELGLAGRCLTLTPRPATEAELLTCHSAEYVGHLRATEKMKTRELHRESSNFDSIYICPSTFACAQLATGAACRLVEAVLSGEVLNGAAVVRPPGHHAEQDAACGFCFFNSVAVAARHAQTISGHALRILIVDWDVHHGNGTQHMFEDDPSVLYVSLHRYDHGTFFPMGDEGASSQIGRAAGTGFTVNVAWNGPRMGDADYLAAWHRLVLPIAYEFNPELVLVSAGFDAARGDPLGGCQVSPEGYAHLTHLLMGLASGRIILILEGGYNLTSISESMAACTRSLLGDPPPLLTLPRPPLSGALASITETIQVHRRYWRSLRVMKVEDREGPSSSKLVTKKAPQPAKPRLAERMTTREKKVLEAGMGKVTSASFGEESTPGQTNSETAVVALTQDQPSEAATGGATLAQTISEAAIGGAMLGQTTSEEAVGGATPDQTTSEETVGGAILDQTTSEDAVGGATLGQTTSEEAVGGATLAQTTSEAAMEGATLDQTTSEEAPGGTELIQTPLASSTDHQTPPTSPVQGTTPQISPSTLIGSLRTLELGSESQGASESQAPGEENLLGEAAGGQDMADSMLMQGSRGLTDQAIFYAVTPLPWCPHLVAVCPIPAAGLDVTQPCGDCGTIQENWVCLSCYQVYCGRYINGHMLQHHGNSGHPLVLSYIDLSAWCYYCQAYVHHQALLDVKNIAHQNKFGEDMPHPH
Experiment: HDAC6 enzyme activity inhibition assay (in vitro, fluorimetric)
Type: biochemical
Settings: HDAC6 selectivity over HDAC1
ENDPOINT LABEL: HDAC6 selectivity (fold)
// return numeric value only (unit: fold, not printed)

Study these solved cases before continuing.
{"MOLECULE": "C[C@@H]1CN(Cc2ccc(C(=O)NO)cc2)C[C@H](C)N1C(=O)C(C)(C)C [Compound 292]", "HDAC6 selectivity (fold)": 76}
{"MOLECULE": "CCN(CC)Cc1cccc(C(=O)N2C[C@@H](C)N(Cc3ccc(/C=C/C(=O)NO)cc3)[C@@H](C)C2)c1 [Compound 487]", "HDAC6 selectivity (fold)": 4}
{"MOLECULE": "C[C@@H]1CN(Cc2ccc(C(=O)NO)cc2)C[C@H](C)N1C(=O)c1ccccc1-c1ccncc1 [Compound 285]", "HDAC6 selectivity (fold)": 75}
{"MOLECULE": "C[C@@H]1CN(Cc2ccc(C(=O)NO)cc2)C[C@H](C)N1Cc1cccc(CN2CCN(C)CC2)c1 [Compound 428]", "HDAC6 selectivity (fold)": 41}
{"MOLECULE": "C[C@@H]1CN(Cc2ccc(N(C)C)cc2)C[C@H](C)N1Cc1ccc(C(=O)NO)cc1 [Compound 299]", "HDAC6 selectivity (fold)": 5}

Fill in HDAC6 selectivity (fold) for record C[C@@H]1CN(C(=O)c2cccc(C3=CCOCC3)c2)C[C@H](C)N1Cc1ccc(C(=O)NO)cc1 [Compound 259]
6

Fill in HDAC6 selectivity (fold) for record C[C@@H]1CN(Cc2ccc(-c3ccco3)cc2)C[C@H](C)N1Cc1ccc(/C=C/C(=O)NO)cc1 [Compound 477]
11

---

This listing pairs compounds with measured HDAC6 selectivity (fold).
Biological target: human recombinant HDAC6 (Homo sapiens)
Construct: purchased Calbiochem 382180
Sequence (Q9UBN7 1-1215): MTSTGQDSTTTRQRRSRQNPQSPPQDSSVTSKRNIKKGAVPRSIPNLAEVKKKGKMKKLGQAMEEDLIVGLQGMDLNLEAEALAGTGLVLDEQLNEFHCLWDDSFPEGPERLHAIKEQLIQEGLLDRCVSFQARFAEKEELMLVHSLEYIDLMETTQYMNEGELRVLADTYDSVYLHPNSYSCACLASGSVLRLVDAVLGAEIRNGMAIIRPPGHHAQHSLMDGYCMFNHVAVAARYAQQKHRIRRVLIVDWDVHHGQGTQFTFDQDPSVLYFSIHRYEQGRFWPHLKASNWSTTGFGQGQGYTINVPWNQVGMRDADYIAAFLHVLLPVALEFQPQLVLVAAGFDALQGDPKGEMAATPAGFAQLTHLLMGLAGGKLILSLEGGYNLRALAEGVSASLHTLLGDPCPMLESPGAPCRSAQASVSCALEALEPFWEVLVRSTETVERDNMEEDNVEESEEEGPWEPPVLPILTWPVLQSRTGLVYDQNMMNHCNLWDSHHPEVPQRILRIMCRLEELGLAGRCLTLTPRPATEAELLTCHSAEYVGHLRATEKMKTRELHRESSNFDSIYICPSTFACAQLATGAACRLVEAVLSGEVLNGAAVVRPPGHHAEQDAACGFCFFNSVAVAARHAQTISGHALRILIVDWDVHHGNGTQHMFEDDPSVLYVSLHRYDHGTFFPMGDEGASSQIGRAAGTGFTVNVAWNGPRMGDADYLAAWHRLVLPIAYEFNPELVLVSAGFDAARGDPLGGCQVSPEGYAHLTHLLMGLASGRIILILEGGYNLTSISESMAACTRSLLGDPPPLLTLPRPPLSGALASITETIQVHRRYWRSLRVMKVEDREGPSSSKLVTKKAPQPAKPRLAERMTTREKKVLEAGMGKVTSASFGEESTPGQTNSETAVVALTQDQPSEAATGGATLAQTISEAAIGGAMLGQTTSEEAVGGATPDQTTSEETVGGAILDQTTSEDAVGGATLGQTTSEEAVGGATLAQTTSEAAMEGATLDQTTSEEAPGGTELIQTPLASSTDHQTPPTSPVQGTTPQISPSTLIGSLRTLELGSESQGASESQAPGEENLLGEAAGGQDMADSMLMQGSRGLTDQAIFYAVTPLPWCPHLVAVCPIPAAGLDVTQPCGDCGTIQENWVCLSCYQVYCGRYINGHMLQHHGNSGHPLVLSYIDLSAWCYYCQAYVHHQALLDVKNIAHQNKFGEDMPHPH
Test: HDAC6 enzyme activity inhibition assay (in vitro, fluorimetric)
Type: biochemical
Conditions: HDAC6 selectivity over HDAC1

Study these solved cases before continuing.
{"COMPOUND": "C[C@@H]1CN(Cc2ccc(C(=O)NO)cc2)C[C@H](C)N1Cc1cc(F)c(F)cc1F [Compound 213]", "HDAC6 selectivity (fold)": ">29 fold"}
{"COMPOUND": "C[C@@H]1CN(Cc2ccc(C(=O)NO)cc2)C[C@H](C)N1CCc1ccccc1 [Compound 184]", "HDAC6 selectivity (fold)": ">40 fold"}
{"COMPOUND": "C[C@@H]1CN(Cc2ccc(C(=O)NO)c(O)c2)C[C@H](C)N1Cc1ccccc1 [Compound 652]", "HDAC6 selectivity (fold)": ">11 fold"}
{"COMPOUND": "C[C@@H]1CN(Cc2ccc(C(=O)NO)cc2)C[C@H](C)N1S(=O)(=O)c1ccccc1 [Compound 100]", "HDAC6 selectivity (fold)": ">105 fold"}

Fill in HDAC6 selectivity (fold) for record C[C@@H]1CN(Cc2ccc(C(=O)NO)cc2)C[C@H](C)N1Cc1ccc(CN2CCN(Cc3ccccc3)CC2)cc1 [Compound 413]
>769 fold
